Target: T1, type 2 ryanodine receptor (RyR2) channel in cardiac SR membranes (pig (endogenous in porcine heart SR), UniProt A0A5G2R1W3 1-4900)
T1 construct: type 2 ryanodine receptor (RyR2), pig heart; homotetrameric assembly of 565-kDa protomers; 'intact RyR2 in cardiac SR vesicles'; In every assay RyR2 stood in native SR membranes and was preloaded with a donor-labelled FKBP12.6 (D-FKBP); also called cardiac ryanodine receptor; source: endogenous, SR vesicles isolated by differential ultracentrifugation of porcine ventricular tissue; residual …
Assay: FRET or BRET; as a6, 30 nM Ca2+, pre-incubated 40 min with unlabeled CaM (1 uM by the legend, 30 uM by the text); apparent affinity; Hill fit
Details: one partner purified
Ends that are not written are not given here. QXL520 = non-fluorescent dark acceptor (quencher) probe
Observed Property: Kd (µM)
# number only, unit µM dropped from output

Request: Endpoint output: Kd of QXL520-GFCPDHKAAMVLFLDRVYGIEVQDFLLHLLEVGFLP (also called acceptor-DPc10; source: synthetic peptide (AnaSpec)) [acceptor-labeled DPc10 (A-DPc10), QXL520 at the N-terminus] . Value?
Result: 14.6
